Test system: NRF2
measurement.protocol: qPCR analysis of NRF2-regulated genes
Type: cell-based, human
experimental.setup: Homo sapiens; 10 μM, 24 hrs, WI-38 cells, qPCR, normalized to B2M, n = 4; read-out: NQO1 expression, normalized fold change (NRF2-regulated gene)

{"molecule": "O=C(Nc1cc(C(F)(F)F)ccc1Cl)c1ccc([N+](=O)[O-])o1", "fold induction at 10 µM": 1.31}
{"molecule": "CC1C(=O)C(C)C(c2cc(Cl)ccc2O)NC1c1cc(Cl)ccc1O (stereo not shown)", "fold induction at 10 µM": 1.62}
{"molecule": "CCc1ccccc1NC(=O)c1ccc([N+](=O)[O-])o1", "fold induction at 10 µM": 1.46}
{"molecule": "O=C(NCc1cccnc1)/C(=C\\c1cccc(Oc2ccccc2)c1)S(=O)(=O)c1ccccc1", "fold induction at 10 µM": 0.78}
{"molecule": "COC(=O)CCc1sc2c(c1[N+](=O)[O-])NC(=O)CCC2", "fold induction at 10 µM": 2.49}
{"molecule": "[O-][n+]1onc2c3nsnc3c(Br)cc21", "fold induction at 10 µM": 1.47}
{"molecule": "COc1ccc(C(=O)/C=C/c2ccc(F)cc2)c(OC)c1", "fold induction at 10 µM": 2.73}
{"molecule": "CCc1ccc(Oc2nc3ccccn3c(=O)c2/C=C(\\C#N)C(=O)NCc2ccco2)cc1", "fold induction at 10 µM": 1.94}
{"molecule": "CCCN1C/C(=C\\c2ccc(F)cc2)C(=O)/C(=C/c2ccc(F)cc2)C1", "fold induction at 10 µM": 1.6}
{"molecule": "CCCC(=O)Nc1ccc(-c2cn3cccc(C)c3n2)cc1", "fold induction at 10 µM": 0.69}

###

Tested on: WI-38 cells
experimental.setup: read-out: Est. ED50; dose response 0.6-20 μM; H2O2-resistance
pEC50: −log10 of the molar value.

{"compound": "Oc1cc(-c2ccccc2)nc2c(-c3ccc(Cl)cc3)c(Cc3ccccc3)nn12 [O26]", "pEC50": 4.70}
{"compound": "O=C(Nc1nc(C23CC4CC(CC(C4)C2)C3)cs1)C(c1ccccc1)c1ccccc1 [O10]", "pEC50": 5.02}
{"compound": "CCc1ccccc1NC(=O)c1ccc([N+](=O)[O-])o1 [Gr-1C]", "pEC50": 5.58}
{"compound": "Oc1nnc(Cc2ccccc2)c2ccccc12 [Gr-2C]", "pEC50": 5.51}
{"compound": "COc1ccc(/C=C2\\SC(=N)N(c3nccs3)C2=O)cc1 [O21]", "pEC50": 4.74}
{"compound": "Oc1ccccc1-c1noc(-c2ccccc2O)n1 [O27]", "pEC50": 4.90}
{"compound": "N=C1S/C(=C\\c2cn(-c3ccccc3)nc2-c2cccs2)C(=O)N1c1nccs1 [Gr-6C]", "pEC50": 4.31}
{"compound": "O=C1NCCCc2cc(Cl)sc21 [O1]", "pEC50": 4.88}
{"compound": "CO/C(O)=C1\\C(C)=NC2=C(C(=O)CC(c3cccs3)C2)C1c1ccc(F)c(F)c1 (stereo not drawn) [O5]", "pEC50": 4.70}
{"compound": "NS(=O)(=O)c1ccc(NC(=O)c2ccc([N+](=O)[O-])o2)cc1 [Gr-1A]", "pEC50": 5.60}
{"compound": "COc1ccc(C(=O)/C=C/c2cccc(Cl)c2)c(OC)c1 [Gr-4C]", "pEC50": 5.19}
{"compound": "O=[N+]([O-])c1ccccc1S(=O)(=O)Nc1cccc2cccnc12 [Gr-3A]", "pEC50": 5.38}
{"compound": "Nc1ccccc1S(=O)(=O)Nc1cccc2cccnc12 [Gr-3C]", "pEC50": 5.34}
{"compound": "CC(Nc1cc(C)ccn1)=C(C#N)C#N [O16]", "pEC50": 4.70}
{"compound": "COc1cc(-c2nc(C(N)=O)c3nc(O)n(-c4cccc(C)c4)c3n2)cc(Br)c1O [O9]", "pEC50": 4.85}
{"compound": "COc1cccc(/C=C2\\CN(C)C/C(=C\\c3cccc(OC)c3OC)C2=O)c1OC [O23]", "pEC50": 5.31}
{"compound": "O=C(/C=C/c1cn(-c2ccccc2)nc1-c1cccnc1)c1ccccc1 [Gr-6B]", "pEC50": 4.35}
{"compound": "CNS(=O)(=O)c1cc(-c2nnc(O)c3ccccc23)ccc1C [Gr-2A]", "pEC50": 5.52}
{"compound": "Cc1cc(C)c(C(=O)/C=C/c2ccccc2F)c(O)n1 [O18]", "pEC50": 5.01}
{"compound": "CC(C)CCOc1ccc(C(=O)C(CN2CCOCC2)c2ccccc2)cc1 (stereo not drawn) [O30]", "pEC50": 5.38}
{"compound": "Cc1ccc(S(=O)(=O)Nc2cccc3cccnc23)cc1 [Gr-3B]", "pEC50": 5.37}

###

Test system: FOXO3
measurement.protocol: qPCR analysis of FOXO3-regulated genes
Format: cell-based, human
experimental.setup: Homo sapiens; WI-38 cells, 10 μM, 24 hrs, n=4, qPCR normalized by B2M; read-out: DDB1 Normalized fold change
Overview of recorded fold induction at 10 µM for various molecules

{"smiles.data": "COc1ccc(C(=O)/C=C/c2ccc(F)cc2)c(OC)c1", "fold induction at 10 µM": 1.2}
{"smiles.data": "COC(=O)CCc1sc2c(c1[N+](=O)[O-])NC(=O)CCC2", "fold induction at 10 µM": 1.25}
{"smiles.data": "O=C1NCCCc2cc(Cl)sc21", "fold induction at 10 µM": 1.2}
{"smiles.data": "O=C(Nc1cccc(C(F)(F)F)c1)c1ccc([N+](=O)[O-])o1", "fold induction at 10 µM": 1.39}
{"smiles.data": "CNC(=O)/C(C#N)=C/c1c(Oc2ccc(C(C)(C)C)cc2)nc2ccccn2c1=O", "fold induction at 10 µM": 0.984}
{"smiles.data": "COc1ccc(C(=O)/C=C/c2ccccc2Br)c(OC)c1", "fold induction at 10 µM": 1.06}

###

Test system: WI-38 cells
measurement.protocol: Long-term effects on cell viability (5 days, ATP; morphology, PI imaging)
Type: cell-based
experimental.setup: Batch 1; 10 μM; day-1; n = 6; day-0 luminescence = 320956 ± 24708
Overview of recorded Luminescence signal for ATP measurement, day-1 Average for various molecules
measure.name: Luminescence signal for ATP measurement, day-1 Average

{"smiles.data": "O=C(NCc1cccnc1)/C(=C\\c1cccc(Oc2ccccc2)c1)S(=O)(=O)c1ccccc1", "readout.value": 463265}
{"smiles.data": "Oc1ncnc2sc3c(c12)CCC3", "readout.value": 581665}
{"smiles.data": "CO[C@H]1C[C@@H]2CC[C@@H](C)[C@@](O)(O2)C(=O)C(=O)N2CCCC[C@H]2C(=O)O[C@H]([C@H](C)C[C@@H]2CC[C@@H](O)[C@H](OC)C2)CC(=O)[C@H](C)/C=C(\\C)[C@@H](O)[C@@H](OC)C(=O)[C@H](C)C[C@H](C)/C=C/C=C/C=C/1C", "readout.value": 454546}
{"smiles.data": "O=C(NCc1cccnc1)/C(=C/c1ccc(-c2ccc(Cl)cc2)o1)S(=O)(=O)c1ccccc1", "readout.value": 378655}
{"smiles.data": "COc1ccc(C(=O)/C=C/c2ccc(F)cc2)c(OC)c1", "readout.value": 501436}
{"smiles.data": "O=C(Nc1ccc(Cl)c(Cl)c1)c1ccc([N+](=O)[O-])o1", "readout.value": 449436}
{"smiles.data": "O=C(NCc1cccnc1)/C(=C\\c1ccc(Br)cc1)S(=O)(=O)c1ccccc1", "readout.value": 311883}
{"smiles.data": "CCc1ccccc1NC(=O)c1ccc([N+](=O)[O-])o1", "readout.value": 421913}

###

measurement.protocol: Summary score for characterization of 38 core set hits
experimental.setup: sum of columns Q and R

{"smiles.data": "COc1cc2c(no[n+]2[O-])n2nnnc12", "S = Sum of Negative scores": 1}
{"smiles.data": "COc1ccc(C(=O)/C=C/c2ccc(F)cc2)c(OC)c1", "S = Sum of Negative scores": 0}
{"smiles.data": "COc1ccc(C(=O)/C=C/c2cccc(Cl)c2)c(OC)c1", "S = Sum of Negative scores": 0}
{"smiles.data": "COc1ccc(C(=O)/C=C/c2ccccc2Br)c(OC)c1", "S = Sum of Negative scores": 0}

###

Test system: phosphorylated γH2A.X and TP53BP1
measurement.protocol: DNA damage marker analysis (immuno-staining)
experimental.setup: Homo sapiens, WI-38, 24 h, read-out: Experiment 1, H2A.X-P DNA damage foci staining (no H2O2 stress treatment), at 10 uM
measure.name: activity at 10 µM

{"compound": "O=C(c1ccc([N+](=O)[O-])o1)N1CCc2ccccc21", "measure.name": "activity at 10 µM", "readout.value": "145%"}
{"compound": "O=C(NCc1cccnc1)/C(=C\\c1cccc(Oc2ccccc2)c1)S(=O)(=O)c1ccccc1", "measure.name": "activity at 10 µM", "readout.value": "337%"}
{"compound": "CNC(=O)/C(C#N)=C/c1c(Oc2ccc(C(C)(C)C)cc2)nc2ccccn2c1=O", "measure.name": "activity at 10 µM", "readout.value": "94.1%"}
{"compound": "CC1C(=O)C(C)C(c2cc(Cl)ccc2O)NC1c1cc(Cl)ccc1O (centres unmarked)", "measure.name": "activity at 10 µM", "readout.value": "122%"}
{"compound": "O=C(NCc1cccnc1)/C(=C\\c1ccc(Br)cc1)S(=O)(=O)c1ccccc1", "measure.name": "activity at 10 µM", "readout.value": "695%"}
{"compound": "O=C(NCc1cccnc1)/C(=C/c1ccc(-c2ccc(Cl)cc2)o1)S(=O)(=O)c1ccccc1", "measure.name": "activity at 10 µM", "readout.value": "132%"}
{"compound": "CCc1ccc(Oc2nc3ccccn3c(=O)c2/C=C(\\C#N)C(=O)NC2CCCCC2)cc1", "measure.name": "activity at 10 µM", "readout.value": "105%"}
{"compound": "Oc1ncnc2sc3c(c12)CCC3", "measure.name": "activity at 10 µM", "readout.value": "116%"}
{"compound": "Nc1ccccc1S(=O)(=O)Nc1cccc2cccnc12", "measure.name": "activity at 10 µM", "readout.value": "113%"}
{"compound": "CCc1ccc(Oc2nc3ccccn3c(=O)c2/C=C(\\C#N)C(=O)NCc2ccco2)cc1", "measure.name": "activity at 10 µM", "readout.value": "100%"}
{"compound": "Cc1ccc(S(=O)(=O)Nc2cccc3cccnc23)cc1", "measure.name": "activity at 10 µM", "readout.value": "81.9%"}
{"compound": "CCCC(=O)Nc1ccc(-c2cn3cccc(C)c3n2)cc1", "measure.name": "activity at 10 µM", "readout.value": "106%"}
{"compound": "CC(C)(C)c1ccc(OCC(=O)Nc2ccc3c4c(cccc24)C(=O)NC3=O)cc1", "measure.name": "activity at 10 µM", "readout.value": "101%"}
{"compound": "O=C(Nc1cccc(Cl)c1)c1ccc([N+](=O)[O-])o1", "measure.name": "activity at 10 µM", "readout.value": "232%"}
{"compound": "Cc1cc(N)n(-c2ccccc2C(=O)O)n1", "measure.name": "activity at 10 µM", "readout.value": "117%"}
{"compound": "Cc1cc(C)c(C(=O)/C=C/c2ccccc2F)c(O)n1", "measure.name": "activity at 10 µM", "readout.value": "364%"}
{"compound": "O=C(Nc1cc(C(F)(F)F)ccc1Cl)c1ccc([N+](=O)[O-])o1", "measure.name": "activity at 10 µM", "readout.value": "134%"}
{"compound": "O=[N+]([O-])c1ccccc1S(=O)(=O)Nc1cccc2cccnc12", "measure.name": "activity at 10 µM", "readout.value": "139%"}
{"compound": "Oc1ccccc1-c1noc(-c2ccccc2O)n1", "measure.name": "activity at 10 µM", "readout.value": "122%"}
{"compound": "COc1cccc(/C=C2\\CN(C)C/C(=C\\c3cccc(OC)c3OC)C2=O)c1OC", "measure.name": "activity at 10 µM", "readout.value": "79.9%"}
